Taken from patent US20160264653A1.

Assay system: T1, human ephrin-A4-His (UniProt P52798 26-170)
T1 chain: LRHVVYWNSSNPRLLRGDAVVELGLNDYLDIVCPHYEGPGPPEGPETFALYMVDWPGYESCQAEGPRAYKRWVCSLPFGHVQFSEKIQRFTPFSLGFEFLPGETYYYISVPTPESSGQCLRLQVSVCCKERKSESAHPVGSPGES
Method description: label-free interaction analysis
Readout type: pKd
To interpret pKd, take it as minus log10 of a concentration measured in moles per litre.

# query: pKd of entry hSC4.22 (antibody, V domains shown) VH: QVQLVQSGAEVKKPGASVKVSCKASGYTFTGYYIHWVRQAPGQGLEWMGWIYPGNFNTKYNERFKGRVTMTTDTSTSTAYMELRSLRSDDTAVYYCAREDGSPYYAMDYWGQGTSVTVSS VL: DIVMTQTPLSLSVTPGQPASISCRSSQSLVHSNGNTFLYWYLQKPGQSPQLLIYRVSNRFSGVPDRFSGSGSGTDFTLKISRVEAEDVGVYYCFQATHVPWTFGGGTKVEIK
8.42

For SC4.22 (Murine mAb) (antibody, V domains shown) VH: QIQLQQSGPELVKPGASVKISCKASGYTFTGYYIHWVKQRPGQGLEWIGWIYPGNFNTKYNERFKGMATLTVDTSSSTAYMQLSSLTSEDSAVYLCAREDGSPYYAMDYWGQGTSVTVSS VL: DVVMTQTPLSLPVSLGDQASISCRSSQSLVHSNGNTFLYWYLQKPGQSPKLLIYRVSNRFSGVPDRFSGSGSGTDFTLKISRVEAEDLGVYFCFQATHVPWTFGGGTKLEIK then?
8.51

For hSC4.15 (antibody, V domains shown) VH: EVQLVESGGGLVKPGGSLRLSCAASGFTFSTYGMSWVRQAPGKGLEWVATISSGGTYTYYPDSVKGRFKISRDNAKNSLYLQMNSLRAEDTAVYYCTRHDPNDGYYFLFAYWGQGTLVTVSS VL: EIVLTQSPGTLSLSPGERATLSCKASQSVGNNVAWYQQKPGQAPRLLIYYASNRYTGIPDRFSGSGSGTDFTLTISRLEPEDFAVYYCQQHYSSPLTFGAGTKLEIK then?
8.32

For SC4.15 (Murine mAb) (antibody, V domains shown) VH: EVQVVESGGDLVKPGGSLKLSCAASGFTFSTYGMSWVRQTPDKRLEWVATISSGGTYTYYPDSVKGRFKISRDNAKDTLYLQMSSLKSEDTAMYYCTRHDPNDGYYFLFAYWGQGTLVIVSA VL: SIGRTQIPKFLPVSAGDRVTMTCKASQSVGNNVAWYQQKAGQSPKLLIYYASNRYTGVPDRFTGSGSGTDFTFTISSVQVEDLAVYFCQQHYSSPLTFGAGTKLELK then?
8.57
